# Test: NCI Yeast Anticancer Drug Screen. Data for the cln2 rad14 strain (AID 165)
# Experimental parameters: S. cerevisiae cln2 rad14 strain, at 50.0 µM, hits give high values
About 79,000 compounds went through this panel and 15% of them were active in at least one assay; those are over-represented in the sample as a whole.
Outcome label depends on growth inhibition relative to 50%: at/above gives t, below gives f.

- Molecule: "N#Cc1cn(-c2c3ccccc3nc3ccccc23)c(=O)[nH]c1=O"
  Assigned category: "f"
- Molecule: "COc1c(I)cc(I)c(O)c1I"
  Assigned category: "t"
- Molecule: "ON(C(=Nc1ccc(Cl)cc1)c1ccccc1)c1ccccc1"
  Assigned category: "t"
- Molecule: "C=C(C)[P+](C)(c1ccccc1)c1ccccc1"
  Assigned category: "f"
- Molecule: "Cc1ccc(NC(=O)Oc2ccc(C(C)(C)C)cc2Br)cc1NC(=O)Oc1ccc(C(C)(C)C)cc1Br"
  Assigned category: "f"
- Molecule: "COc1ccc(C(=O)C(c2ccc(OC)cc2)C2(O)C(=O)Nc3c(C)cc(Cl)cc32)cc1 (stereo unspecified)"
  Assigned category: "t"
